# assay target: Trifunctional purine biosynthetic protein adenosine-3 (Homo sapiens)
# measurement protocol: In vitro inhibitory activity against Glycinamide ribonucleotide transformylase (GAR Tfase+GAR) following 30 min pre-incubation at 250 uM concentration
metric: inhibition (%)

>>> observed_value("COC(=O)c1ccc(CN(CCc2c(N)nc(N)nc2O)c2cc(F)c(F)cc2[N+](=O)[O-])cc1")
31
>>> observed_value("COC(=O)c1ccc(CN(CCc2c(N)nc(N)nc2O)c2ccc([N+](=O)[O-])c(F)c2F)cc1")
85
>>> observed_value("COC(=O)c1ccc(CN(CCc2c(N)nc(N)nc2O)c2cc(F)c([N+](=O)[O-])cc2[N+](=O)[O-])cc1")
54

Ref: ChEMBL document CHEMBL1133492
